Biological target: ovine COX-1 (Ovis aries, UniProt P05979)
Construct: COX-1 was purified from ram seminal vesicles obtained from Oxford Biomedical Research, Inc; tissue Oxford Biomedical Research, Inc. (Oxford, Michigan); host or cells: ram seminal vesicles
Sequence (P05979 25-600): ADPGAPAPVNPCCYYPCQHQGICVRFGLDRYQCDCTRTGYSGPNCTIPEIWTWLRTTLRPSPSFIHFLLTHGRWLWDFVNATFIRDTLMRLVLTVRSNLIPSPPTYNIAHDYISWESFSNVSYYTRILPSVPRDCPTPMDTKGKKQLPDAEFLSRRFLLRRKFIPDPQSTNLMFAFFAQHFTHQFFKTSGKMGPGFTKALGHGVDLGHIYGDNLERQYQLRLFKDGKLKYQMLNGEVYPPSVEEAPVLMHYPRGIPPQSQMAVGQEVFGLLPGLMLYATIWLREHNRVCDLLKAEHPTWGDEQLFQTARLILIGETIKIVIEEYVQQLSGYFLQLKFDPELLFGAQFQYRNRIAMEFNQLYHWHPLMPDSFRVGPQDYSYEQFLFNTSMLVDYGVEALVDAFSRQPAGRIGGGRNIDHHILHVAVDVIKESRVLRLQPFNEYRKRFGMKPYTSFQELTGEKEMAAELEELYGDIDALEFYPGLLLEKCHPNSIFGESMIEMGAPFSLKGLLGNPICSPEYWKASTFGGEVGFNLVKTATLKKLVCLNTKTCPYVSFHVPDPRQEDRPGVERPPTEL
Test: TLC assay of cyclooxygenase inhibition, purified ovine COX-1
Format: biochemical
Conditions: Table 2, amide derivatives; ovine COX-1 (44 nM), 20 min, 1-14C-AA at 37°C for 30 sec
Measure: IC50

[[record]]
compound = "COc1ccc2c(c1)c(CC(=O)Nc1ccc(F)cc1)c(C)n2C(=O)c1ccc(Cl)cc1 [Compound 39, Indomethacin-N-(4-fluorophenyl) amide]"
target_under_test = "ovine COX-1 (Ovis aries, UniProt P05979)"
measure = "IC50"
reported_value = "> 66 µM"

[[record]]
compound = "COc1ccc2c(c1)c(CC(=O)Nc1cccnc1)c(C)n2C(=O)c1ccc(Cl)cc1 [Compound 47, Indomethacin-N-(3-pyridyl) amide]"
target_under_test = "ovine COX-1 (Ovis aries, UniProt P05979)"
measure = "IC50"
reported_value = "> 66 µM"

